Origin of the recorded values: patent US20240158418A1

Molecular target: EGFR L858R-T790M (Homo sapiens, UniProt P00533, L858R/T790M)
Construct: NCI-H1975 (harboring EGFR heterozygous L858R-T790M mutations); host or cells: NCI-H1975
Sequence (P00533 25-1210 T790M/L858R): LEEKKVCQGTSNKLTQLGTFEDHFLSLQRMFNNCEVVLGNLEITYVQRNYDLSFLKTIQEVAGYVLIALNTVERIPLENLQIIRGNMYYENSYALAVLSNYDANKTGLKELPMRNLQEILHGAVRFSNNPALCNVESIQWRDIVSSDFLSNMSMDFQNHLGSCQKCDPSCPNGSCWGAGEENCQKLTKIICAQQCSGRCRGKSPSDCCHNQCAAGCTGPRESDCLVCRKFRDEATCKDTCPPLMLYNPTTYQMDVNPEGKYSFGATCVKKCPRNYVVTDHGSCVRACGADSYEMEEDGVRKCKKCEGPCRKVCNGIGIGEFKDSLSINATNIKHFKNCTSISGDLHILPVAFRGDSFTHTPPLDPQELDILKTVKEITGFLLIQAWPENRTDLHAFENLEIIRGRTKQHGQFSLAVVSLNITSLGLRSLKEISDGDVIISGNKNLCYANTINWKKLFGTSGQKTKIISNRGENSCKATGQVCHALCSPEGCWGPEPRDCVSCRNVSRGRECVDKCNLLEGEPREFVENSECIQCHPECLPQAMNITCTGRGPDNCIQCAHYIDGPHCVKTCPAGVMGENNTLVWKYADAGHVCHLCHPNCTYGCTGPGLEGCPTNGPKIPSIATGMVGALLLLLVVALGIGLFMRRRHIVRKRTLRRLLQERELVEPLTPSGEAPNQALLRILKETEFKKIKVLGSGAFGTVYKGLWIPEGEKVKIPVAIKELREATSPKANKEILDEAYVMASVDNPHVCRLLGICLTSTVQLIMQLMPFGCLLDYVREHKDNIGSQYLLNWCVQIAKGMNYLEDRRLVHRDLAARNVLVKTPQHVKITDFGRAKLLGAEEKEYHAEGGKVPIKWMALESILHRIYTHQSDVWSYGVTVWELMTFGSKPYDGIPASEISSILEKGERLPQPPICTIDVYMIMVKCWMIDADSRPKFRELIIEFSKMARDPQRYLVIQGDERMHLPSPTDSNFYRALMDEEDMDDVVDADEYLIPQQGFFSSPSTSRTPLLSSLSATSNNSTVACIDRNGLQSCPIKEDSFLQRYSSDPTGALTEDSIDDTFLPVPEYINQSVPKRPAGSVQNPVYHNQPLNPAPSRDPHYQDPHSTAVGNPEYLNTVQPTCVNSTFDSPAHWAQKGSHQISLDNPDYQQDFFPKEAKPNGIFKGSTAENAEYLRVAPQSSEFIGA
Assay: EGFR degradation, Total EGFR (L858R-specific) HTRF, NCI-H1975
Type: cell-based
Details: Table 9A; NCI-H1975 cells, 6 hours, Total EGFR HTRF; read-out: H1975 EGFR DC50
Protocol: NCI-H1975 (harboring EGFR heterozygous L858R-T790M mutations) and NCI-H3255 (harboring EGFR heterozygous L858R mutation) were purchased from ATCC and NCI, respectively. […] Degradation of EGFR protein containing L858R mutation or wild-type was determined based on quantification of FRET signal using a Total EGFR (L858R-specific or pan-EGFR detecting) HTRF assay kit. Phospho-EGFR (pEGFR) inhibition was determined based on quantification of FRET signal using a pY1068 EGFR HTRF assay kit. […]
Outcome measure: DC50

// below: answered molecules
Molecule: O=C1CCC(Nc2ccc(C3CCN(CC(=O)N4CCC(c5ccc(-c6cc(F)c7c(c6)C(=O)N(C(C(=O)Nc6nccs6)c6ncn8c6CCC8)C7)cc5)CC4)CC3)cc2)C(=O)N1 (centres unmarked) [Compound 21]
Outcome measure: DC50
Result: < 50 nM
--
Molecule: O=C1CCC(Nc2ccc(C3CCN(CC(=O)N4CCN(c5ccc(-c6ccc7cn(C(C(=O)Nc8nccs8)c8ncn9c8CCC9)nc7c6F)cn5)CC4)CC3)cc2)C(=O)N1 (racemic) [Compound 63]
Outcome measure: DC50
Result: 50 to 150 nM
--
Molecule: Cn1nc(N2CCC(=O)NC2=O)c2ccc(C3CCN(CC(=O)N4CCN(c5ccc(-c6cc(F)c7c(c6)C(=O)N(C(C(=O)Nc6nccs6)c6ncn8c6C[C@@H](F)C8)C7)cc5)CC4)CC3)cc21 (some centres unmarked) [Compound 45]
Outcome measure: DC50
Result: < 50 nM
--
Molecule: O=C1CC[C@H](Nc2ccc(N3CCC(O)(CC(=O)N4CC5(C4)CN(c4ccc(-c6cc(F)c7c(c6)C(=O)N(C(C(=O)Nc6nccs6)c6ncn8c6CCC8)C7)cc4)C5)CC3)c(F)c2)C(=O)N1 (some centres unmarked) [Compound 1]
Outcome measure: DC50
Result: < 50 nM
--
Molecule: O=C1CC[C@H](Nc2ccc(C3CCN(CC(=O)N4CC[C@H](Oc5ccc(-c6cc(F)c7c(c6)C(=O)N(C(C(=O)Nc6nccs6)c6ncn8c6CCC8)C7)cc5)C4)CC3)cc2)C(=O)N1 (some centres unmarked) [Compound 42]
Outcome measure: DC50
Result: < 50 nM
--
Molecule: O=C1CC[C@H](Nc2ccc(C3CCN(CC(=O)N4CCC(Cc5ccc(-c6cc(F)c7c(c6)C(=O)N(C(C(=O)Nc6nccs6)c6ncn8c6CCC8)C7)cc5)CC4)CC3)c(F)c2)C(=O)N1 (some centres unmarked) [Compound 60]
Outcome measure: DC50
Result: 50 to 150 nM
--
Molecule: N#Cc1cc(NC2CCC(=O)NC2=O)ccc1C1CCN(CC(=O)N2CCC(Oc3ccc(-c4cc(F)c5c(c4)C(=O)N(C(C(=O)Nc4nccs4)c4ncn6c4CCC6)C5)cc3)CC2)CC1 (centres unmarked) [Compound 37]
Outcome measure: DC50
Result: < 50 nM
--
Molecule: O=C1CC[C@H](Nc2ccc(C3CCN(CC(=O)N4CCN(c5ccc(-c6cc(F)c7c(c6)C(=O)N(C(C(=O)Nc6nccs6)c6ncn8c6CCC8)C7)cc5)CC4)CC3)cc2)C(=O)N1 (some centres unmarked) [Compound 56]
Outcome measure: DC50
Result: < 50 nM

The molecule listed as O=C1CC[C@H](Nc2ccc(C3CCN(CC(=O)N4CCC(c5cnn(-c6cc(F)c7c(c6)C(=O)N(C(C(=O)Nc6nccs6)c6ncn8c6CCC8)C7)c5)CC4)CC3)cc2)C(=O)N1 (some centres unmarked) [Compound 29] has a reported DC50 of < 50 nM

The molecule listed as Cn1nc(N2CCC(=O)NC2=O)c2ccc(C3CCN(CC(=O)N4CC5(C4)CN(c4ccc(-c6cc(F)c7c(c6)C(=O)N(C(C(=O)Nc6ccccn6)c6ncn8c6CCC8)C7)cc4)C5)CC3(F)F)cc21 (centres unmarked) [Compound 5] has a reported DC50 of < 50 nM

The molecule listed as O=C1CCC(Nc2ccc(C3CCN(CC(=O)N4CCC(Oc5ccc(-c6cc(F)c7c(c6)C(=O)N(C(C(=O)Nc6nccs6)c6ncn8c6CCC8)C7)cc5)CC4)CC3)cc2F)C(=O)N1 (centres unmarked) [Compound 34] has a reported DC50 of 50 to 150 nM

The molecule listed as O=C1CCC(Nc2ccc(C3CCN(C(=O)C(=O)N4CCC(Oc5ccc(-c6cc(F)c7c(c6)C(=O)N(C(C(=O)Nc6nccs6)c6ncn8c6CCC8)C7)cc5)CC4)CC3)cc2)C(=O)N1 (centres unmarked) [Compound 40] has a reported DC50 of < 50 nM

The molecule listed as Cn1nc(N2CCC(=O)NC2=O)c2ccc(C3CCN(CC(=O)N4CC5(C4)CN(c4ccc(-c6cc(F)c7c(c6)C(=O)N(C(C(=O)Nc6nccs6)c6ncn8c6CCC8)C7)cc4)C5)CC3(F)F)cc21 (centres unmarked) [Compound 3] has a reported DC50 of < 50 nM

The molecule listed as O=C1CC[C@H](Nc2ccc(C3CCN(CC(=O)N4CCC(n5cc(-c6cc(F)c7c(c6)C(=O)N(C(C(=O)Nc6nccs6)c6ncn8c6CCC8)C7)nn5)CC4)CC3)cc2)C(=O)N1 (some centres unmarked) [Compound 30] has a reported DC50 of < 50 nM
